Test: qHTS Assay for Lipid Storage Modulators (AID 1519)
Conditions: Drosophila S3 cells, BODIPY lipid droplet/cell ratio, laser cytometry; measured here: lipid channel max response; cells loaded with oleic acid
Records with an inconclusive call do not appear.
Entries and their max response values follow.

molecule	max response (%)
CNCCC=C1c2ccccc2C=Cc2ccccc21	-8.1
C[C@@](N)(C(=O)O)c1cccc(CC(=O)O)c1	3.55
NC(CSCSCC(N)C(=O)O)C(=O)O (configuration not stated)	12.4
CNc1ccccc1C(=O)N1CCc2c([nH]c3ccccc23)C1=O	25.5
O=c1c2ccccc2oc2cc(O)c(C3COCC(CO)C(O)C(O)C3O)c(O)c12 (configuration not stated)	36.9
NC(=O)c1ccc[n+]([C@@H]2O[C@H](COP(=O)([O-])OP(=O)(O)OC[C@H]3O[C@@H](n4cnc5c(N)ncnc54)[C@@H](O)[C@@H]3O)[C@@H](O)[C@@H]2O)c1	-22.7
CC(=O)OC1CC(OC(C)=O)[C@]2(C)C(CC(=O)[C@]3(C)C2CC[C@@]2(C)C(c4ccoc4)OC(=O)C4O[C@@]423)C1(C)C (some centres not stated)	20.9
COc1c(O)cc2c(-c3ccccc3)cc(=O)oc2c1OC	14.2
O=c1cc(-c2cccc(O)c2)oc2cc(O)ccc12	28
CCO[C@H]1O[C@@H]([C@H](COCc2ccccc2)OCc2ccccc2)[C@@H](OCc2ccccc2)[C@H]1O	-12.6
CC(=O)OC1CC[C@@]2(C)C(CC[C@@]3(C)C2CC=C2C4CC(C)(C)CC[C@]4(C)CC[C@@]23C)C1(C)C (some centres not stated)	14
C=C1C2CC[C@@]3(C)C(c4ccoc4)OC(=O)C[C@@]13OC1CC(=O)C(C)(C)C(CC(=O)OC)[C@]12C (some centres not stated)	-5.31
CCN(CC)CCOC(=O)[C@@H](c1ccccc1)C1CCCCC1	-16.6
C=CCOc1ccccc1OC[C@H](O)CNC(C)C	-9.74
CC(=O)c1c(O)c(C)c(O)c2c1OC1=CC(=O)C(C(C)=O)C(=O)C12C (configuration not stated)	22.6
CC1=C(C(=O)O)N2C(=O)[C@@H](NC(=O)[C@@H](N)c3ccc(O)cc3)[C@@H]2SC1	-2.01
CC[C@@H]1OC(=O)[C@H](C)[C@H](O[C@@H]2C[C@](C)(OC)[C@H](O)[C@H](C)O2)[C@H](C)[C@H](O[C@@H]2O[C@@H](C)C[C@@H](N(C)C)[C@@H]2O)[C@](C)(O)C[C@H](C)C(=NOCOCCOC)[C@H](C)[C@H](O)[C@]1(C)O	-1.19
CC(C)CC(NC(=O)OCC1c2ccccc2-c2ccccc21)C(=O)O (configuration not stated)	14.5
O=C(/C=C/c1ccccc1)c1ccc(O)cc1	2.04
COc1ccc2cc1Oc1ccc(cc1)CC1c3c(cc4c(c3Oc3cc5c(cc3OC)CCN(C)C5C2)OCO4)CCN1C (configuration not stated)	21
CCC(=O)[C@@]1(C)[C@H](C)C[C@@H]2[C@@H]3CCC4=CC(=O)C=C[C@@]4(C)[C@H]3[C@H](O)C[C@]21C	-19.8
NS(=O)(=O)c1cc2c(cc1C(F)(F)F)N[C@H](Cc1ccccc1)NS2(=O)=O	-8.81
CN1CCCC1CCO[C@@](C)(c1ccccc1)c1ccc(Cl)cc1 (some centres not stated)	-28.2
CC(=O)OC1CC(OC(C)=O)[C@]2(C)C(CC(OC(C)=O)[C@]3(C)C2CC[C@@]2(C)C(c4ccoc4)OC(=O)C4O[C@]432)C1(C)C (some centres not stated)	-0.493
C#C[C@]1(O)CCC2C3CCC4=CC(=O)CCC4C3CC[C@@]21C (some centres not stated)	5.87
Nc1ncnc2c1ncn2C1OC(COP(=O)(O)O)C(O)C1O (configuration not stated)	41.9
Nc1ncnc2c1nc(Br)n2C1CC(O)C(CO)O1 (configuration not stated)	11.8
O=C(O)C1(O)C[C@H](O)C(O)[C@@H](O)C1 (some centres not stated)	-7.19
COc1ccc(/C=C/C(=O)c2ccc(O)cc2O)cc1	19.5
CC(=O)OC1CC2C(C)(C)C(=O)[C@@H]3OC3[C@@]2(C)C2CC[C@]3(C)C(=CC(=O)OC3c3ccoc3)[C@]12C (some centres not stated)	25.7
O=C(O)C1CC(C2CCCCN2)CN2CCCCC12 (configuration not stated)	1.78
Clc1ccc(CC[C@H](Cn2ccnc2)Sc2c(Cl)cccc2Cl)cc1	-6.78
COc1c(O)cccc1O	5.81
O=C(O)[C@@H](O)[C@@H](O)[C@@H](O[C@H]1O[C@@H](CO)[C@@H](O)[C@@H](O)[C@@H]1O)[C@@H](O)CO	10.3
CCCCC(=O)O[C@@]1(C(=O)CO)C(C)CC2C3CCC4=CC(=O)C=C[C@@]4(C)[C@]3(F)C(O)C[C@]21C (some centres not stated)	7.08
CC1=CC(=O)C2C(C)(C)CCC[C@@]2(C)[C@@]1(O)CCc1ccoc1 (some centres not stated)	10.8
CC(=O)OC1CC2C(C)(C)C(O)CCC2(C)C2CC[C@]3(C)C(=CC(=O)OC3c3ccoc3)C12C (some centres not stated)	-0.419
